Give measured pKd for each item. Keep answers brief.
- Test target: T1, ENAH EVH1 domain (monomeric, wild type) (human, UniProt Q03173 1-111 (mouse entry))
- T1 construct: ENAH residue numbers in the text count from the Met at position 25 of this entry; also called ENAH EVH1 WT; Mena EVH1 WT
- T1 sequence (Q03173 other isoform, or with tags, fused parts or gaps limits assumed): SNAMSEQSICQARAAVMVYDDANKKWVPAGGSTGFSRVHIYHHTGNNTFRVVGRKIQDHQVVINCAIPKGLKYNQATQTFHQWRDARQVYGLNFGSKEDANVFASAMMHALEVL
- Protocol notes: BLI, steady state; SUMO-peptide immobilised, EVH1 monomer in solution
// returns pKd (minus log10 of molar concentration), number only

Asked: Read the entry ABI1 a peptide (biotinylated (BAP tag), ABI1 truncation, tested as a SUMO fusion) peptide: MAGGLNDIFEAQKIEWHEDTGGSSHHHHHHGSGSGSDSEVNQEAKPEVKPEVKPETHINLKVSDGSSEIFFKIKKTTPLRRLMEAFAKRQGKEMDSLTFLYDGIEIQADQTPEDLDMEDNDIIEAHREQIGGSGSGFDDFPPPPPPPPVDYED and write its reported pKd.
Given back: 5.28

Asked: Read the entry FP4S4 peptide (FPPPPSSSS) (biotinylated (BAP tag), Tested as a SUMO fusion) peptide: MAGGLNDIFEAQKIEWHEDTGGSSHHHHHHGSGSGSDSEVNQEAKPEVKPEVKPETHINLKVSDGSSEIFFKIKKTTPLRRLMEAFAKRQGKEMDSLTFLYDGIEIQADQTPEDLDMEDNDIIEAHREQIGGSGSGFPPPPSSSS and write its reported pKd.
Given back: 3.94

Asked: Read the entry ABI1 36mer peptide (biotinylated (BAP tag)) peptide: MAGGLNDIFEAQKIEWHEDTGGSSHHHHHHGSGSGSDSEVNQEAKPEVKPEVKPETHINLKVSDGSSEIFFKIKKTTPLRRLMEAFAKRQGKEMDSLTFLYDGIEIQADQTPEDLDMEDNDIIEAHREQIGGSGSGFDDFPPPPPPPPVDYEDEEAAVVQYNDPYADGDPAW and write its reported pKd.
Given back: 5.40

Asked: Read the entry FDDFP8 peptide (biotinylated (BAP tag), ABI1 truncation, tested as a SUMO fusion) peptide: MAGGLNDIFEAQKIEWHEDTGGSSHHHHHHGSGSGSDSEVNQEAKPEVKPEVKPETHINLKVSDGSSEIFFKIKKTTPLRRLMEAFAKRQGKEMDSLTFLYDGIEIQADQTPEDLDMEDNDIIEAHREQIGGSGSGFDDFPPPPPPPP and write its reported pKd.
Given back: 5.00

Asked: Read the entry FP8 peptide (FPPPPPPPP) (biotinylated (BAP tag), ABI1 truncation, tested as a SUMO fusion) peptide: MAGGLNDIFEAQKIEWHEDTGGSSHHHHHHGSGSGSDSEVNQEAKPEVKPEVKPETHINLKVSDGSSEIFFKIKKTTPLRRLMEAFAKRQGKEMDSLTFLYDGIEIQADQTPEDLDMEDNDIIEAHREQIGGSGSGFPPPPPPPP and write its reported pKd.
Given back: 4.55

This collection of values is drawn from patent US12552834.
